Tested on: Mycobacterium tuberculosis
Assay: Antimycobacterial activity against isoniazid-resistant Mycobacterium tuberculosis by agar dilution method
Assay type: functional
Friendly reminder: MIC below 4 µM is 1.0, at or above is 0.0.

Before answering, review these 8 worked examples.
[[record]]
molecule = "Cc1cc(C2=NN(C(=O)c3ccncc3)C(c3ccco3)C2)ccc1O (configuration not stated)"
assigned_class = 1.0

[[record]]
molecule = "Cc1cc(C2=NN(C(=O)c3ccncc3)C(c3ccc(F)cc3)C2)ccc1O (configuration not stated)"
assigned_class = 1.0

[[record]]
molecule = "NNC(=O)c1ccncc1 [ISONIAZID]"
assigned_class = 0.0

[[record]]
molecule = "COc1ccc(C2CC(c3ccc(O)c(C)c3)=NN2C(=O)c2ccncc2)cc1 (configuration not stated)"
assigned_class = 0.0

[[record]]
molecule = "Cc1cc(C2=NN(C(=O)c3ccncc3)C(c3ccc(N(C)C)cc3)C2)ccc1O (configuration not stated)"
assigned_class = 1.0

[[record]]
molecule = "COc1ccc(C2CC(c3ccc(O)c(C)c3)=NN2C(=O)c2ccncc2)c(OC)c1OC (configuration not stated)"
assigned_class = 1.0

[[record]]
molecule = "Cc1cc(C2=NN(C(=O)c3ccncc3)C(c3ccccc3Cl)C2)ccc1O (configuration not stated)"
assigned_class = 1.0

[[record]]
molecule = "Cc1cc(C2=NN(C(=O)c3ccncc3)C(c3cccc([N+](=O)[O-])c3)C2)ccc1O (configuration not stated)"
assigned_class = 0.0


Report whether reported MIC is lower than 4 µM (strictly) for COc1ccc(C2CC(c3ccc(O)c(C)c3)=NN2C(=O)c2ccncc2)cc1OC (configuration not stated)
1.0

Is MIC strictly under 4 µM for the entry Cc1cc(C2=NN(C(=O)c3ccncc3)C(c3ccccc3)C2)ccc1O (configuration not stated) ?
0.0

Quick check: does Cc1cc(C2=NN(C(=O)c3ccncc3)C(c3c(Cl)cccc3Cl)C2)ccc1O (configuration not stated) have MIC under 4 µM?
1.0
